B1: Zinc finger homeobox protein 3, residues 2244 to 2299; numbered along this chain, Q15911 (parent)
chain: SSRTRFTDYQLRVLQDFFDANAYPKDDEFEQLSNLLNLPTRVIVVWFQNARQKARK

Variants of: B1
Experiment: abundance fitness (aPCA) (normalised: wild type 0, dead -1); higher = more abundant; growth selection in yeast, the domain comes from the species named
Conditions: Homo sapiens
Class (required): determined from abundance fitness; valid ranges are low end (below -0.4), middle (-0.4 to below -0.2), high end (-0.2 or more)

## Input Class (by measured abundance fitness) for SSRTRFTDYHLRVLQDFFDANAYPKDDEFEQLSNLLNLPTRVIVVWFQNARQKARK
## Output low end

## Input Class (by measured abundance fitness) for SSRTRFTDYQLRVLQDQFDANAYPKDDEFEQLSNLLNLPTRVIVVWFQNARQKARK
## Output low end

## Input Class (by measured abundance fitness) for SSRTRFTDYQLRVLQDFFDANAYPKDDELEQLSNLLNLPTRVIVVWFQNARQKARK
## Output high end

## Input Class (by measured abundance fitness) for SSRTRFTDYQLRELQDFFDANAYPKDDEFEQLSNLLNLPTRVIVVWFQNARQKARK
## Output middle

## Input Class (by measured abundance fitness) for SSRTRFTDYQLRVLQAFFDANAYPKDDEFEQLSNLLNLPTRVIVVWFQNARQKARK
## Output middle

## Input Class (by measured abundance fitness) for SSRTRFTDYQLRVLQDFFDANAYPKDDEFEQLSNLLNPPTRVIVVWFQNARQKARK
## Output low end
